test system: B16F0 melanoma tumour; assay: Biodistribution in B16 melanoma bearing mice; format: in vivo, C57BL/6J mice; settings: B16F0 tumour, C57BL/6J mice, 1 h, mean ± S.D., n = 5
# maps each entry to its Organ distribution Thyroid
propertyLabel: Organ distribution Thyroid (% ID/organ)

> print(dat)
                                   compound               propertylabel  observed
1    CCN(CC)CCNC(=O)c1ccc(I)nc1 [[^123I]14]  Organ distribution Thyroid       1.2
2  O=C(c1cncc(I)c1)N1CCN(Cc2ccccc2)CC1 [[^123I]20]  Organ distribution Thyroid      0.30
3  CCCN(CCC)CCCCNC(=O)c1cncc(I)c1 [[^123I]17]  Organ distribution Thyroid       1.3
4    CCN(CC)CCNC(=O)c1cncc(I)c1 [[^123I]11]  Organ distribution Thyroid      0.37
